Target Under Test: Mast/stem cell growth factor receptor Kit (Homo sapiens, UniProt P10721)
Sequence (P10721 whole entry): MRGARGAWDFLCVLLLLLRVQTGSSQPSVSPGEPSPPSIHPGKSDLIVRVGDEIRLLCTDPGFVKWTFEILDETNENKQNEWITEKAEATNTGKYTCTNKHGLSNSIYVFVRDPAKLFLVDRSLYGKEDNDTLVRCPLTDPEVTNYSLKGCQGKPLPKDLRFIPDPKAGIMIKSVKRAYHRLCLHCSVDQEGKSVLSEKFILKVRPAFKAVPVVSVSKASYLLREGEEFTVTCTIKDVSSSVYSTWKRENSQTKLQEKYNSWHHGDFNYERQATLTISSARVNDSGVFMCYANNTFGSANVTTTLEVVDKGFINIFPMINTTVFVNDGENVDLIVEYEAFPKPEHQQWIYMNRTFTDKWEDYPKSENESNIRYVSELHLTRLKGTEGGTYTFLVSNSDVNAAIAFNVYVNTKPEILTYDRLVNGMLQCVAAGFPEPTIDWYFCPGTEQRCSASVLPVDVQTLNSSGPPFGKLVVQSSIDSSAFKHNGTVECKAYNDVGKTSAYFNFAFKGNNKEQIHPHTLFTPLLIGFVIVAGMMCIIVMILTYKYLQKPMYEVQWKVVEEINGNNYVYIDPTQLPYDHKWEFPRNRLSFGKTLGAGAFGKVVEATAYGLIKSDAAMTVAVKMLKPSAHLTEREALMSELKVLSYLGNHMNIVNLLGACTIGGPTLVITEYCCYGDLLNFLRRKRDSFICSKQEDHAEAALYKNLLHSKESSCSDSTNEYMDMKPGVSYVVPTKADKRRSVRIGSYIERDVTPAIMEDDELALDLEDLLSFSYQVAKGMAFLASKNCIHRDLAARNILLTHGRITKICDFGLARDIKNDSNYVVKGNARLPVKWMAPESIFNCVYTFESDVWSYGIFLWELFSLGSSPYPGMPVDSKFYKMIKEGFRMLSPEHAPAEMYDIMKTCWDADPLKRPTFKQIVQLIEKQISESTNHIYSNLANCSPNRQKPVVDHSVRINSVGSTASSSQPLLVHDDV
Assay: Inhibitory concentration against c-Kit wild type expressed in recombinant baculovirus
pIC50: −log10 of the molar value.
# label = MET if pIC50 >= 6 else NOT MET

# Compound String, Group
records = [
    ("Cc1c2ccncc2c(C)c2c1[nH]c1ccccc12", "NOT MET"),
    ("CCN(CC)CCCNc1nccc2c(C)c3[nH]c4ncccc4c3cc12", "NOT MET"),
    ("CCN(CC)CCCNc1nccc2c(C)c3[nH]c4ccc(OC)cc4c3cc12", "NOT MET"),
    ("CCN(CC)CC[n+]1ccc2c(C)c3[nH]c4ccc(O)cc4c3c(C)c2c1", "MET"),
    ("Cc1c2ccncc2c(C)c2c1[nH]c1ccc(O)cc12", "MET"),
    ("Cc1c2cc[n+](C)cc2c(C)c2c1[nH]c1ccc(O)cc12", "MET"),
    ("CCN(CC)CCCNc1nccc2c(C)c3c(c(C)c12)c1cc(O)ccc1n3C", "NOT MET"),
    ("Cc1c2ccncc2c(C)c2c1[nH]c1ccc(Br)cc12", "NOT MET"),
]

----------
Catalogue of IC50 values
Target Under Test: Mast/stem cell growth factor receptor Kit (Homo sapiens, UniProt P10721, D816V)
Sequence (P10721 26-976 D816V limits assumed): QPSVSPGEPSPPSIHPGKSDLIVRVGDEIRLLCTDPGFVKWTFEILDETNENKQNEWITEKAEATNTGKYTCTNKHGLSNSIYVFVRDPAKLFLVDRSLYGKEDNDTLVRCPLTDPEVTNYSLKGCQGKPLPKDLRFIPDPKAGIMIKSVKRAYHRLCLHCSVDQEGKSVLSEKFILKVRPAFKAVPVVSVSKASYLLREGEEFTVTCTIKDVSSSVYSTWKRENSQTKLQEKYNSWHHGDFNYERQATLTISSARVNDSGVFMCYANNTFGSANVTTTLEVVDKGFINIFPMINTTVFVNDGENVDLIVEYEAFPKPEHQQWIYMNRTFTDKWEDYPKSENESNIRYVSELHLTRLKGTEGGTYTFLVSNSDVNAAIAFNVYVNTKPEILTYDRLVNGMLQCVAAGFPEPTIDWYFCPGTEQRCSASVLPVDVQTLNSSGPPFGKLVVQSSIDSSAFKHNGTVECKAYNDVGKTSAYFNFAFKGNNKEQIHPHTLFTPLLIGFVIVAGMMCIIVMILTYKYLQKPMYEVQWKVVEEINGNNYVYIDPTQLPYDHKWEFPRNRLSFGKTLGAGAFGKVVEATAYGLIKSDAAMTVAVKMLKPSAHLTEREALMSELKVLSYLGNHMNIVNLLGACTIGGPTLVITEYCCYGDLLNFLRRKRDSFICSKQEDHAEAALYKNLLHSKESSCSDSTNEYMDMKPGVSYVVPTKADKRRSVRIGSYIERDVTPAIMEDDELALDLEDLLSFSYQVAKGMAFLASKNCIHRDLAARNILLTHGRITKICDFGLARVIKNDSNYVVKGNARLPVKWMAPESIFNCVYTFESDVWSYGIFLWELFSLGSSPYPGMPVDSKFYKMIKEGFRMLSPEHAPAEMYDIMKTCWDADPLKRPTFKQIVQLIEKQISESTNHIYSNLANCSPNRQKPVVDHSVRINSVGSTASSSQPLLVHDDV
Assay: Inhibitory concentration against c-Kit D816V type expressed in recombinant baculovirus
Value Type: IC50 (nM)

# Compound String, Value Type, Unit Of Measure, Result Modifier, Val
records = [
    ("CCN(CC)CCCNc1nccc2c(C)c3[nH]c4ncccc4c3cc12", "IC50", "nM", "=", 1900),
    ("Cc1c2ccncc2c(C)c2c1[nH]c1ccccc12", "IC50", "nM", ">", 10000),
    ("CCN(CC)CCCNc1nccc2c(C)c3[nH]c4ccc(O)cc4c3c(C)c12", "IC50", "nM", "=", 1200),
    ("Cc1c2cc[n+](C)cc2c(C)c2c1[nH]c1ccc(O)cc12", "IC50", "nM", "=", 400),
    ("Cc1c2ccncc2c(C)c2c1[nH]c1ccc(O)cc12", "IC50", "nM", "=", 400),
    ("Cc1c2ccncc2c(C)c2c1[nH]c1ccc(Br)cc12", "IC50", "nM", ">", 10000),
    ("CCN(CC)CCCNc1nccc2c(C)c3c(c(C)c12)c1cc(O)ccc1n3C", "IC50", "nM", "=", 3600),
    ("CCN(CC)CCCNc1nccc2c(C)c3[nH]c4ccc(OC)cc4c3cc12", "IC50", "nM", "=", 2000),
    ("COc1ccc2[nH]c3c(C)c4ccncc4c(C)c3c2c1", "IC50", "nM", "=", 600),
    ("CCN(CC)CC[n+]1ccc2c(C)c3[nH]c4ccc(O)cc4c3c(C)c2c1", "IC50", "nM", "=", 300),
]

----------
As a worked illustration, we turn to IC50 data collected for Fibroblast growth factor receptor 3 (Homo sapiens).

# Compound String, Unit Of Measure, IC50
measured = [
    ("Cc1c2ccncc2c(C)c2c1[nH]c1ccc(O)cc12", "nM", 400),
    ("Cc1c2cc[n+](C)cc2c(C)c2c1[nH]c1ccc(O)cc12", "nM", 500),
    ("CCN(CC)CCCNc1nccc2c(C)c3c(c(C)c12)c1cc(O)ccc1n3C", "nM", 1400),
]
